- Test system: M14 melanoma
- test.description: NCI-60 one-dose screen, 48 h
- experimental.setup: 10 µM unless noted
This is part of a sample that, as a whole, favours compounds with a hit. Of some 83,000 tested, about 20% had one in any assay. Calls of active or inactive are those of the source. How the source made its calls: active means growth percent below 10; inactive means the rest.
Log the outcome using a class from active, inactive

A selection of reference data follows.
Request: Answer briefly: the call reported for CC/C=C\C[C@H](O)C/C=C1/C(=O)C=C[C@@H]1C/C=C\CCCC(=O)NC(C)C in this assay.
Response: active

Request: Answer briefly: the call reported for Cc1cc(Nc2nc(N3CCNCC3)nc3ccccc23)n[nH]1 in this assay.
Response: inactive

Request: Answer briefly: the call reported for COc1ccc(-c2cc(/C=C3\C(=O)Nc4ccc(Cl)cc43)[nH]n2)cc1 in this assay.
Response: inactive

Next:
Request: Answer briefly: the call reported for O=C1CC(c2nc3ccccc3s2)CN1C1CCCCC1 (stereo unspecified) in this assay.
Response: inactive

Request: Answer briefly: the call reported for CC/C(=C(\c1ccccc1)c1ccc(OCCNC)cc1)c1ccccc1 in this assay.
Response: active

Request: Answer briefly: the call reported for Cc1cc(=O)oc2cc(Oc3nc(-c4ccc(Cl)cc4)cn4c(-c5ccc(Cl)cc5)cnc34)ccc12 in this assay.
Response: inactive

Request: Answer briefly: the call reported for CC(C)(C)n1cc(-c2ccnc(NCCNS(=O)(=O)c3ccccc3)c2)c(-c2cccc(O)c2)n1 in this assay.
Response: inactive

Request: Answer briefly: the call reported for Nc1cc2nc3ccccc3sc-2cc1=O in this assay.
Response: inactive
